# Test Name: yeast display, Sf9 membrane polyspecificity reagent, FACS + sequencing; frameworks hold sequencing errors
Value Type: polyreactivity (PSR sort gate)

{"Sequence Chain": "QVQLVESGGGLVQAGGSLRLSCAASGRIFSQYAMGWYRQAPGKERELVAAISRRTGSTYYADSVKGRFTISRDNAKNTVYLQMNSLKPEDTAVYYCNKARLGWSYRQDDYLGQGTQVTVSS", "Value Type": "polyreactivity (PSR sort gate)", "Observed Result": "high polyreactivity"}
{"Sequence Chain": "QVQLVESGGGLVQAGGSLRLSCAASGSTFYYYAMGWYRQAPGKERELVATISRSTARTFYADSVKGRFTISRDNAKNTVYLQMNSLKPEDTAVYYCAATSYVSVYPSYYRFGTYGYWGQGTQVTVSS", "Value Type": "polyreactivity (PSR sort gate)", "Observed Result": "high polyreactivity"}
{"Sequence Chain": "QVQLVDSGGGLVQAGGSLRLTCAASGRIFYYNPMGWNRQAPGIVRELVDAINMISGSTYYADSVKGRFTISRDNAKNSVYFQMNSLKPEDTAVYYCAAQGVDTRIFFSFGFDYWGQGTQVNVSS", "Value Type": "polyreactivity (PSR sort gate)", "Observed Result": "high polyreactivity"}
